molecular target: KDR (human, UniProt P35968 20-1356); assay: cell-based or functional assay
Sequence (P35968 20-1356): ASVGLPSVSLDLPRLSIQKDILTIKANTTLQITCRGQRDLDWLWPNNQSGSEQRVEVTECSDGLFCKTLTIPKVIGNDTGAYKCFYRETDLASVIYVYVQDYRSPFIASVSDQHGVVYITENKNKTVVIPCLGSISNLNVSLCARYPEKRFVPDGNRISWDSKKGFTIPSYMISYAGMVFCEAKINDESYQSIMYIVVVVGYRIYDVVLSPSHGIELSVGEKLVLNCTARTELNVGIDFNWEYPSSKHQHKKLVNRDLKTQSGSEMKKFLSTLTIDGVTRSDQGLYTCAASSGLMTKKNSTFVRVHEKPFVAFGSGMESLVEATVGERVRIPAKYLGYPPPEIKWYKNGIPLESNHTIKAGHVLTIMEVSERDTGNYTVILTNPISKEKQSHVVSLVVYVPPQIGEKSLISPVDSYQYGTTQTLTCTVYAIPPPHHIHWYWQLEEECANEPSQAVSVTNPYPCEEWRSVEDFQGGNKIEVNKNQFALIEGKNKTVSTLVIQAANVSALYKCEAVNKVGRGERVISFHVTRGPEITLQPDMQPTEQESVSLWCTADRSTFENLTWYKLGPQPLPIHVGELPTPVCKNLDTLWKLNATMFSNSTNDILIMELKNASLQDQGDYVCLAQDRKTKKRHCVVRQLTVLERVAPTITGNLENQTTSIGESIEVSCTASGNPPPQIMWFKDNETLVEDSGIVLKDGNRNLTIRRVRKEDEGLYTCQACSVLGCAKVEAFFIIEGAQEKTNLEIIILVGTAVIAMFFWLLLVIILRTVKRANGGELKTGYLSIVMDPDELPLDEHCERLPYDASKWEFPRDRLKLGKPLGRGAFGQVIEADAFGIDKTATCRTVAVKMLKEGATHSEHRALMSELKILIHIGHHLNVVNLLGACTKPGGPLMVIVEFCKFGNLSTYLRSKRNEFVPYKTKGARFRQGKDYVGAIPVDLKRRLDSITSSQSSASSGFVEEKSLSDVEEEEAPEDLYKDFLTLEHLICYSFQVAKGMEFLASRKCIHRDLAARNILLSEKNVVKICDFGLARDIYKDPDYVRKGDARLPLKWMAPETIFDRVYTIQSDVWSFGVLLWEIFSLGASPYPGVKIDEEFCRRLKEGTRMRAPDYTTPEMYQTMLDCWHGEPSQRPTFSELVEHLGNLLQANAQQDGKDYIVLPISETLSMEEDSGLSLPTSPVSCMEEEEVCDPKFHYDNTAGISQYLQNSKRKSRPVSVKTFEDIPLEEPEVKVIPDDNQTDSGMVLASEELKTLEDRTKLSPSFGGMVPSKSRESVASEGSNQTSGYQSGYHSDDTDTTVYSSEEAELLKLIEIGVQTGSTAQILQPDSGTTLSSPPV
Quantity Name: Activity at 133 nM (% Inhibition), 1-hour Pre-incubation at 4° C., Average (%)
Your answer is read as %, so omit the unit and give the number.

24C9 (antibody, V domains shown) VH: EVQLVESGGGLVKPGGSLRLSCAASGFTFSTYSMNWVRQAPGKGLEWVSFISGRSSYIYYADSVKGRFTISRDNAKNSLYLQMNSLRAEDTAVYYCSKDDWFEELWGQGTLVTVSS VL: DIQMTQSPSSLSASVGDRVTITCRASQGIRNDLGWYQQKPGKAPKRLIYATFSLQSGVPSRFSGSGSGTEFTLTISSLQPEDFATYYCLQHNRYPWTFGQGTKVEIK	81
29H3 (antibody, V domains shown) VH: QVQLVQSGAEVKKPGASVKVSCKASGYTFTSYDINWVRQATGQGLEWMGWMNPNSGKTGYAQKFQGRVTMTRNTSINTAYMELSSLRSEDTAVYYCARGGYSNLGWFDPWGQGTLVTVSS VL: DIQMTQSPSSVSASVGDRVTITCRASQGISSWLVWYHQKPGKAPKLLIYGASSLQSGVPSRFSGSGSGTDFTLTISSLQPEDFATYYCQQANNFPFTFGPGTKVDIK	50

Now for the binder whose Activity at 133 nM (% Inhibition), 1-hour Pre-incubation at 4° C., Average we want.
Value of measured Activity at 133 nM (% Inhibition), 1-hour Pre-incubation at 4° C., Average for the entry 33B1 (antibody, V domains shown) VH: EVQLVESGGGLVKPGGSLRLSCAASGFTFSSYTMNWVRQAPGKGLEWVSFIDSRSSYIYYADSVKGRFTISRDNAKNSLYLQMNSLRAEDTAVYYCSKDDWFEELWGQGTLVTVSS VL: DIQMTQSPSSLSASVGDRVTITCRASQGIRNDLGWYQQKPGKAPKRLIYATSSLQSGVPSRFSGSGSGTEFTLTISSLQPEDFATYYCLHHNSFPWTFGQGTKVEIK : 87
